- System: CDKL5;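 also: KINOMEscan kinase panel screen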
- experimental.parameters: concentration: 1 μM, replicates: in singlicate; n = 1
Give satisfied when the value for %Inh is at least 4%. Give not satisfied when it is less.

* Cl.Cl.Cl.N#Cc1ccc(CCNc2nccc(-c3cccc(CN4CCNCC4)c3)n2)cc1 | not satisfied
* CCn1c(-c2c(N)noc2C)nc2cnccc21 | not satisfied
* Cc1ccc(NC(=O)Nc2ccccc2F)cc1-c1ccc(C(=O)Nc2ccncc2)cc1 | satisfied
* Cc1ccc(-c2nc(Nc3ccncc3)c3ccccc3n2)s1 | satisfied
* c1ccc(-c2ccnc3[nH]ccc23)cc1 | satisfied
* COc1ccc2cc(-c3nc(-c4ccccc4C(C)C)[nH]c3-c3ccncc3)ccc2c1 | satisfied
* COc1ccc(CSc2nnc(-c3ccc4ncsc4c3)o2)cc1C(F)(F)F | satisfied
* Fc1ccc(-c2nc3n(c2-c2ccncc2)CCS3)cc1 | not satisfied
* COC(=O)C(Cc1ccccc1)NC(=O)NC1CCN(c2ccnc(Nc3ccc(F)cc3)n2)C1 (stereo not drawn) | not satisfied
* CC[C@@H]1CO[C@H](C(=O)Nc2ccccc2)CN1c1cc(-c2ccc3c(N)n[nH]c3c2)nc(NC)n1 | not satisfied
* Cc1cccc2c(-c3ccncn3)c(-c3ccc(F)cc3)nn12 | not satisfied
* O=C(Nc1n[nH]c2nc(-c3cccs3)c(Br)cc12)C1CCCC1 | not satisfied
* Cc1c(Cn2c(C)c(C)n3c(=O)cc(N4CCOCC4)nc23)cccc1C(F)(F)F | not satisfied
* CC(=O)c1c(C)c2cnc(Nc3ccn(C)n3)nc2n(C2CCCC2)c1=O | not satisfied
* O=C(Nc1n[nH]c2nc(-c3ccco3)c(Br)cc12)C1CCN(Cc2ccccc2)C1.O=C(O)[C@H](O)[C@@H](O)C(=O)O (stereo not drawn) | satisfied
* COc1ccc(CSc2nnc(-c3ccc4nccn4c3)o2)cc1C(F)(F)F | satisfied
* Cc1cnc(N)c(/C=C/c2cncc(C(=O)NCCc3ccc(Cl)cc3Cl)c2)c1.Cl | satisfied
